Where these numbers come from: paper PMC11345841

target_system: KIT(V559D,T670I) (Homo sapiens, UniProt P10721, T670I/V559D)
Construct: purchased Eurofins DiscoverX KINOMEscan (scanTK)
Sequence (P10721 26-976 V559D/T670I): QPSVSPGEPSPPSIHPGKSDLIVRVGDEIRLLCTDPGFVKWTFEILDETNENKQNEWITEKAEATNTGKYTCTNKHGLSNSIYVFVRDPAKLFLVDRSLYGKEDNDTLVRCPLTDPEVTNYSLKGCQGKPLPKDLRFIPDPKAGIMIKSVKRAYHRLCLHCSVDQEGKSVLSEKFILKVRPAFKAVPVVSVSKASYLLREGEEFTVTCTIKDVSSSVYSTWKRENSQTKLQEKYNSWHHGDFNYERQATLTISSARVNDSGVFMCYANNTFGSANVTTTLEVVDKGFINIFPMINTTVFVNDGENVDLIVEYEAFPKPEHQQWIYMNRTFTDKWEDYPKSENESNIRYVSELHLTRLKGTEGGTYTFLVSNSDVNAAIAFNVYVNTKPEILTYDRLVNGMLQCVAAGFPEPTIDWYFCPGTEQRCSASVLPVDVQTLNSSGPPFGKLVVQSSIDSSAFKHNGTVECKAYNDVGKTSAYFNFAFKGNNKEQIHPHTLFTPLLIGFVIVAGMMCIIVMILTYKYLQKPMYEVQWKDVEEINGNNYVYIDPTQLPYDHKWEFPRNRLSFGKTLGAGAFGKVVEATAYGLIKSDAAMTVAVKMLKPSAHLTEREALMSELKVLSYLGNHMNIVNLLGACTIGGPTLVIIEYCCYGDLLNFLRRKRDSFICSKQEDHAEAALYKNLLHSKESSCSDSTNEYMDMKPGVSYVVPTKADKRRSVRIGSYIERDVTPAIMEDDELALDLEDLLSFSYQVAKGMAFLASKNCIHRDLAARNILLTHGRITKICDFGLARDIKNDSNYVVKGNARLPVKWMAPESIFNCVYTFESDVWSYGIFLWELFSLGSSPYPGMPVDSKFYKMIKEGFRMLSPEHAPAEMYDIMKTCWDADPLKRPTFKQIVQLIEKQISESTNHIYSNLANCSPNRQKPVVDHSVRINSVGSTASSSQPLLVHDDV
test_description: KINOMEscan ScanTK
Assay type: binding
condition: read-out: %Control @1000nM
# remaining binding at 1 µM listing for each entry below
Report the value in % with no unit label.

// solved cases for remaining binding at 1 µM follow
* COC(=O)c1cnc(S(C)(=O)=O)nc1N1CCCC(n2nc(-c3ccc(Oc4ccccc4)cc3)c3c(N)ncnc32)C1 (centres unmarked) | 92
* CCOC(=O)c1cnc(S(C)(=O)=O)nc1N1CCC[C@@H](n2nc(-c3ccc(Oc4ccccc4)cc3)c3c(N)ncnc32)C1 | 34

INPUT: Given the entry Cc1cnc(S(C)(=O)=O)nc1N1CCCC(n2nc(-c3ccc(Oc4ccccc4)cc3)c3c(N)ncnc32)C1 (centres unmarked) , report its measured remaining binding at 1 µM.
OUTPUT: 68

INPUT: Now give it for CNC(=O)c1cnc(S(C)(=O)=O)nc1N1CCCC(n2nc(-c3ccc(Oc4ccccc4)cc3)c3c(N)ncnc32)C1 (centres unmarked) too.
OUTPUT: 79

INPUT: Now give it for C=CC(=O)N1CCC[C@@H](n2nc(-c3ccc(Oc4ccccc4)cc3)c3c(N)ncnc32)C1 [Compound 1g, Ibrutinib, reference compound] too.
OUTPUT: 68

---

# remaining binding at 1 µM listing for each entry below
target_system: DDR2 (Homo sapiens)
Construct: purchased Eurofins DiscoverX KINOMEscan (scanTK)
Sequence (Q16832 22-855): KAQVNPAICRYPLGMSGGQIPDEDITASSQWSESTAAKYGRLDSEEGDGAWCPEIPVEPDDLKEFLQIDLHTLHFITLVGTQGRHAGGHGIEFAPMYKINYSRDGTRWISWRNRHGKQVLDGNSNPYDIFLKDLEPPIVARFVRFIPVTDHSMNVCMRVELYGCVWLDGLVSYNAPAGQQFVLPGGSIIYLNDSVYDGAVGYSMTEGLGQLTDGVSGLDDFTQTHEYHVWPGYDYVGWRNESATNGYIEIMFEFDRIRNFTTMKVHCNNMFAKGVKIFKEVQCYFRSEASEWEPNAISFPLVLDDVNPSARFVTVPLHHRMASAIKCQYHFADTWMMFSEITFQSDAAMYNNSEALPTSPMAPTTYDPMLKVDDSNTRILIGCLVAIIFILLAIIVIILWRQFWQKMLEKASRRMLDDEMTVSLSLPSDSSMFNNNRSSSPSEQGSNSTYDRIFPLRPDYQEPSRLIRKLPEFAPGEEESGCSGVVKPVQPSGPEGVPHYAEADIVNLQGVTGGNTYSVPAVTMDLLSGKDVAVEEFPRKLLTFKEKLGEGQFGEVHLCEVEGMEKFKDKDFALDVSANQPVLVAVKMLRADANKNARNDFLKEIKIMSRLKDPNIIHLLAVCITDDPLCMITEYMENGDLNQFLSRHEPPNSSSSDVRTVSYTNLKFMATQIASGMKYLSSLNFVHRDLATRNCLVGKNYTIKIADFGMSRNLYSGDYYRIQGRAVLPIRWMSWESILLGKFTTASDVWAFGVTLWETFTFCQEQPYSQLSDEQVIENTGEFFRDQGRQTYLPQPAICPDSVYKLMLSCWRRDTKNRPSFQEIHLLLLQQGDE
test_description: KINOMEscan ScanTK
Assay type: binding
condition: @1000nM; DDR2; read-out: %Control
Report the value in % with no unit label.

// solved cases for remaining binding at 1 µM follow
• COC(=O)c1cnc(S(C)(=O)=O)nc1N1CCCC(n2nc(-c3ccc(Oc4ccccc4)cc3)c3c(N)ncnc32)C1 (stereo not shown) = 91
• CCOC(=O)c1cnc(S(C)(=O)=O)nc1N1CCC[C@@H](n2nc(-c3ccc(Oc4ccccc4)cc3)c3c(N)ncnc32)C1 = 75

INPUT: Given the entry Cc1cnc(S(C)(=O)=O)nc1N1CCCC(n2nc(-c3ccc(Oc4ccccc4)cc3)c3c(N)ncnc32)C1 (stereo not shown) , report its measured remaining binding at 1 µM.
OUTPUT: 92

INPUT: Now give it for CNC(=O)c1cnc(S(C)(=O)=O)nc1N1CCCC(n2nc(-c3ccc(Oc4ccccc4)cc3)c3c(N)ncnc32)C1 (stereo not shown) too.
OUTPUT: 82

---

target_system: SRC (Homo sapiens)
Construct: purchased Eurofins DiscoverX KINOMEscan (scanTK)
test_description: KINOMEscan ScanTK
Type: binding
condition: read-out: %Control @1000nM
# remaining binding at 1 µM listing for each entry below
Report the value in % with no unit label.

// solved cases for remaining binding at 1 µM follow
- CNC(=O)c1cnc(S(C)(=O)=O)nc1N1CCCC(n2nc(-c3ccc(Oc4ccccc4)cc3)c3c(N)ncnc32)C1 (stereo not shown) [Compound 8d]: 43
- Cc1cnc(S(C)(=O)=O)nc1N1CCCC(n2nc(-c3ccc(Oc4ccccc4)cc3)c3c(N)ncnc32)C1 (stereo not shown) [Compound 8a]: 17
- CCOC(=O)c1cnc(S(C)(=O)=O)nc1N1CCC[C@@H](n2nc(-c3ccc(Oc4ccccc4)cc3)c3c(N)ncnc32)C1 [Compound 8c]: 66

INPUT: Given the entry COC(=O)c1cnc(S(C)(=O)=O)nc1N1CCCC(n2nc(-c3ccc(Oc4ccccc4)cc3)c3c(N)ncnc32)C1 (stereo not shown) [Compound 8b] , report its measured remaining binding at 1 µM.
OUTPUT: 60

---

target_system: SYK (Homo sapiens, UniProt P43405)
Construct: purchased Eurofins DiscoverX KINOMEscan (scanTK)
test_description: KINOMEscan ScanTK
Format: binding
condition: read-out: %Control @1000nM
measured_metric: remaining binding at 1 µM (%)
Report the value in % with no unit label.

// solved cases for remaining binding at 1 µM follow
* C=CC(=O)N1CCC[C@@H](n2nc(-c3ccc(Oc4ccccc4)cc3)c3c(N)ncnc32)C1 [Compound 1g, Ibrutinib, reference compound] | 91
* Cc1cnc(S(C)(=O)=O)nc1N1CCCC(n2nc(-c3ccc(Oc4ccccc4)cc3)c3c(N)ncnc32)C1 (centres unmarked) [Compound 8a] | 84

INPUT: Given the entry CNC(=O)c1cnc(S(C)(=O)=O)nc1N1CCCC(n2nc(-c3ccc(Oc4ccccc4)cc3)c3c(N)ncnc32)C1 (centres unmarked) [Compound 8d] , report its measured remaining binding at 1 µM.
OUTPUT: 89

INPUT: Now give it for CCOC(=O)c1cnc(S(C)(=O)=O)nc1N1CCC[C@@H](n2nc(-c3ccc(Oc4ccccc4)cc3)c3c(N)ncnc32)C1 [Compound 8c] too.
OUTPUT: 100

INPUT: Now give it for COC(=O)c1cnc(S(C)(=O)=O)nc1N1CCCC(n2nc(-c3ccc(Oc4ccccc4)cc3)c3c(N)ncnc32)C1 (centres unmarked) [Compound 8b] too.
OUTPUT: 78

---

target_system: KIT(D816H) (Homo sapiens, UniProt P10721, D816H)
Construct: purchased Eurofins DiscoverX KINOMEscan (scanTK)
Sequence (P10721 26-976 D816H): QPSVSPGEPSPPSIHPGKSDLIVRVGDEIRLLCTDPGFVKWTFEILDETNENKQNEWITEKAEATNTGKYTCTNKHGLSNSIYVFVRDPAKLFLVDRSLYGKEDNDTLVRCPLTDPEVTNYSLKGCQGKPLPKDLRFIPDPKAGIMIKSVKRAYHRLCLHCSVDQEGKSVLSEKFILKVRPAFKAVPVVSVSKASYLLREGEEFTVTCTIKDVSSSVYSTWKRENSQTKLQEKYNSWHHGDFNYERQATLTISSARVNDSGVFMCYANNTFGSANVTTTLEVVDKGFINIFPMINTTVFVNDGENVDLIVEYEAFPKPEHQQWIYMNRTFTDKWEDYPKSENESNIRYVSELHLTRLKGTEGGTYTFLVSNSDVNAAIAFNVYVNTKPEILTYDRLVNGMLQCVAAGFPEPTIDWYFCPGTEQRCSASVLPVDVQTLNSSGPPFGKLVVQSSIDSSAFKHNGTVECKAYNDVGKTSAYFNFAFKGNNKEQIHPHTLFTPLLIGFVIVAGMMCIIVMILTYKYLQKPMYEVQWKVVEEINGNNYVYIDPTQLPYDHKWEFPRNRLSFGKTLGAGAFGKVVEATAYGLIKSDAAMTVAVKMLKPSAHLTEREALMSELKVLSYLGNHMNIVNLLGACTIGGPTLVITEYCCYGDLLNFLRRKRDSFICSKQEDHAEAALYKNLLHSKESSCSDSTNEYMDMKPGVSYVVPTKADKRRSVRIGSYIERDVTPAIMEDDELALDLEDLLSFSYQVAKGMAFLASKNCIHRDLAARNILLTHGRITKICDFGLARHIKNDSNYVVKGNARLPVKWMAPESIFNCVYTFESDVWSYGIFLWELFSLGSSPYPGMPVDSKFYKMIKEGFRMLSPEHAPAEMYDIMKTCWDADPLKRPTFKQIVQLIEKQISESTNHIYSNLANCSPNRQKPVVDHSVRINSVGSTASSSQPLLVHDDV
test_description: KINOMEscan ScanTK
Assay type: binding
condition: read-out: %Control @1000nM
measured_metric: remaining binding at 1 µM (%)
Report the value in % with no unit label.

// solved cases for remaining binding at 1 µM follow
• CCOC(=O)c1cnc(S(C)(=O)=O)nc1N1CCC[C@@H](n2nc(-c3ccc(Oc4ccccc4)cc3)c3c(N)ncnc32)C1 [Compound 8c] = 55
• COC(=O)c1cnc(S(C)(=O)=O)nc1N1CCCC(n2nc(-c3ccc(Oc4ccccc4)cc3)c3c(N)ncnc32)C1 (centres unmarked) [Compound 8b] = 98
• Cc1cnc(S(C)(=O)=O)nc1N1CCCC(n2nc(-c3ccc(Oc4ccccc4)cc3)c3c(N)ncnc32)C1 (centres unmarked) [Compound 8a] = 87

INPUT: Given the entry CNC(=O)c1cnc(S(C)(=O)=O)nc1N1CCCC(n2nc(-c3ccc(Oc4ccccc4)cc3)c3c(N)ncnc32)C1 (centres unmarked) [Compound 8d] , report its measured remaining binding at 1 µM.
OUTPUT: 50

INPUT: Now give it for C=CC(=O)N1CCC[C@@H](n2nc(-c3ccc(Oc4ccccc4)cc3)c3c(N)ncnc32)C1 [Compound 1g, Ibrutinib, reference compound] too.
OUTPUT: 100

---

target_system: MET(Y1235D) (Homo sapiens, UniProt P08581, Y1235D)
Construct: purchased Eurofins DiscoverX KINOMEscan (scanTK)
Sequence (P08581 25-1390 Y1235D): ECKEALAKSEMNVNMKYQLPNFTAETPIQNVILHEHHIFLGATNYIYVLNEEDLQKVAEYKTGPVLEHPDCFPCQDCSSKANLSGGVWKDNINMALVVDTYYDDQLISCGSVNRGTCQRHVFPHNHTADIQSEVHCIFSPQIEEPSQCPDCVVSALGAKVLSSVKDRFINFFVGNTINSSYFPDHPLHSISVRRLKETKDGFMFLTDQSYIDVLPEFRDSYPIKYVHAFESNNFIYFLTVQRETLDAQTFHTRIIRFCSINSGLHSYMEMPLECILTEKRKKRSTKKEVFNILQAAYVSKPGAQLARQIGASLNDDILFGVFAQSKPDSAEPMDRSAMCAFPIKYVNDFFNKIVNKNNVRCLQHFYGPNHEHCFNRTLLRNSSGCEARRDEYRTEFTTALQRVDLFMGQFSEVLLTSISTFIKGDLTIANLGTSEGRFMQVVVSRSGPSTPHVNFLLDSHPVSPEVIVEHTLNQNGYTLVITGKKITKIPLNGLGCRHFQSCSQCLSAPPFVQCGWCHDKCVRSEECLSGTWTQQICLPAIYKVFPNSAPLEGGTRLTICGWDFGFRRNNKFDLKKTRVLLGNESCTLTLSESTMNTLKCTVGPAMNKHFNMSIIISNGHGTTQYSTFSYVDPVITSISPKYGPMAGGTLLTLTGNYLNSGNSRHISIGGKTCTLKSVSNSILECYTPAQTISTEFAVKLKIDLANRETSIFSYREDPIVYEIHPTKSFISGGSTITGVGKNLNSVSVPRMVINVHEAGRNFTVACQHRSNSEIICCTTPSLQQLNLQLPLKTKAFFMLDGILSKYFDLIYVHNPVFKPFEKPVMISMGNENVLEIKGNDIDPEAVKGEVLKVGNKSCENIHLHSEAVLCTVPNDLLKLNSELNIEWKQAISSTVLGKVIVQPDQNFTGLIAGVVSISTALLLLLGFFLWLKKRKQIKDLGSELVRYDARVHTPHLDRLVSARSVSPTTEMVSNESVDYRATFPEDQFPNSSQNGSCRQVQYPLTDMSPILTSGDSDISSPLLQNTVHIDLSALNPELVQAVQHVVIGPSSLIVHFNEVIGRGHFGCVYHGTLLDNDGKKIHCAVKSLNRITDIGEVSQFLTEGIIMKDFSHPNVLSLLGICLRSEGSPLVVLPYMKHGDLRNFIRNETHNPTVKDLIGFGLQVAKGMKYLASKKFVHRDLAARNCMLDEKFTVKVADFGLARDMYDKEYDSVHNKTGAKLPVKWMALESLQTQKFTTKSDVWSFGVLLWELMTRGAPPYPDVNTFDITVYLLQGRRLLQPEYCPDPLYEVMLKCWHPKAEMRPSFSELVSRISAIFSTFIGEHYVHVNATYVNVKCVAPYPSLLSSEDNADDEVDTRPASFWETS
test_description: KINOMEscan ScanTK
Type: binding
condition: read-out: %Control @1000nM
measured_metric: remaining binding at 1 µM (%)
Report the value in % with no unit label.

// solved cases for remaining binding at 1 µM follow
* Cc1cnc(S(C)(=O)=O)nc1N1CCCC(n2nc(-c3ccc(Oc4ccccc4)cc3)c3c(N)ncnc32)C1 (centres unmarked) [Compound 8a] | 100
* C=CC(=O)N1CCC[C@@H](n2nc(-c3ccc(Oc4ccccc4)cc3)c3c(N)ncnc32)C1 [Compound 1g, Ibrutinib, reference compound] | 96
* CNC(=O)c1cnc(S(C)(=O)=O)nc1N1CCCC(n2nc(-c3ccc(Oc4ccccc4)cc3)c3c(N)ncnc32)C1 (centres unmarked) [Compound 8d] | 91
* CCOC(=O)c1cnc(S(C)(=O)=O)nc1N1CCC[C@@H](n2nc(-c3ccc(Oc4ccccc4)cc3)c3c(N)ncnc32)C1 [Compound 8c] | 100

Attention now turns to another entry.
INPUT: Given the entry COC(=O)c1cnc(S(C)(=O)=O)nc1N1CCCC(n2nc(-c3ccc(Oc4ccccc4)cc3)c3c(N)ncnc32)C1 (centres unmarked) [Compound 8b] , report its measured remaining binding at 1 µM.
OUTPUT: 94

---

target_system: EPHA4 (Homo sapiens)
Construct: purchased Eurofins DiscoverX KINOMEscan (scanTK)
Sequence (P54764 20-986): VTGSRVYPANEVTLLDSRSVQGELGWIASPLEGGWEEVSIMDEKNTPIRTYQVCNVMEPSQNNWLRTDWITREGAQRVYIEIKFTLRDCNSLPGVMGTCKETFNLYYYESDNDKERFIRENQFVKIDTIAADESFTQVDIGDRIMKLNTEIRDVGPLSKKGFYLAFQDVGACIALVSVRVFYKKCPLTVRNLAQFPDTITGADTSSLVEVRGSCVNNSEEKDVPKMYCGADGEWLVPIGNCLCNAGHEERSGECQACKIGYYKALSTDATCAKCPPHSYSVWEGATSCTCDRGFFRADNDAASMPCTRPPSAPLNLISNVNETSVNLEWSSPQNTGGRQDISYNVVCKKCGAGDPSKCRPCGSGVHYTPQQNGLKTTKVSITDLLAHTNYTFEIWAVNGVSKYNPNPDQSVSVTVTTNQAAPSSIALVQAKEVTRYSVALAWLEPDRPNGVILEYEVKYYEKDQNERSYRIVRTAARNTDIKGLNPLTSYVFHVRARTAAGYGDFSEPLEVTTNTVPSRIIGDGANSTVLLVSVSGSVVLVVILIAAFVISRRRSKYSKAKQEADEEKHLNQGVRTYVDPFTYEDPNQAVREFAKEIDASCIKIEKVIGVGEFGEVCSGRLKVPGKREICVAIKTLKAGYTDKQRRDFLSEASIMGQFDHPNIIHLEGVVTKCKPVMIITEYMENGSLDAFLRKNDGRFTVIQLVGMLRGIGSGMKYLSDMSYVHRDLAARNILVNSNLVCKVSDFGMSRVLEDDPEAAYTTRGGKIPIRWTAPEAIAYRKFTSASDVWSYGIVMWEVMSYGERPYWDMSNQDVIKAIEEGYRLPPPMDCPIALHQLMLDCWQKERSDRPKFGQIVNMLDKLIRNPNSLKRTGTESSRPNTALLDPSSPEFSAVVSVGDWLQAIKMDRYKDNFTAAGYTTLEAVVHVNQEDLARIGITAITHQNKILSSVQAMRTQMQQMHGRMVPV
test_description: KINOMEscan ScanTK
Assay type: binding
condition: @1000nM
# %Control difference from compound Ib at 1 µM listing for each entry below
Report the value in % with no unit label.

// solved cases for %Control difference from compound Ib at 1 µM follow
- Cc1cnc(S(C)(=O)=O)nc1N1CCCC(n2nc(-c3ccc(Oc4ccccc4)cc3)c3c(N)ncnc32)C1 (stereo not shown) [Compound 8a]: 9
- CNC(=O)c1cnc(S(C)(=O)=O)nc1N1CCCC(n2nc(-c3ccc(Oc4ccccc4)cc3)c3c(N)ncnc32)C1 (stereo not shown) [Compound 8d]: 9
- COC(=O)c1cnc(S(C)(=O)=O)nc1N1CCCC(n2nc(-c3ccc(Oc4ccccc4)cc3)c3c(N)ncnc32)C1 (stereo not shown) [Compound 8b]: 7

INPUT: Please provide the recorded %Control difference from compound Ib at 1 µM for CCOC(=O)c1cnc(S(C)(=O)=O)nc1N1CCC[C@@H](n2nc(-c3ccc(Oc4ccccc4)cc3)c3c(N)ncnc32)C1 [Compound 8c] , tested on EPHA4 (Homo sapiens).
OUTPUT: 9

---

# difference in %Control versus compound Ib at 1 µM listing for each entry below
target_system: CSF1R (Homo sapiens)
Construct: purchased Eurofins DiscoverX KINOMEscan (scanTK)
test_description: KINOMEscan ScanTK
Assay type: binding
condition: @1000nM
Report the value in % with no unit label.

// solved cases for difference in %Control versus compound Ib at 1 µM follow
• CCOC(=O)c1cnc(S(C)(=O)=O)nc1N1CCC[C@@H](n2nc(-c3ccc(Oc4ccccc4)cc3)c3c(N)ncnc32)C1 = 16
• COC(=O)c1cnc(S(C)(=O)=O)nc1N1CCCC(n2nc(-c3ccc(Oc4ccccc4)cc3)c3c(N)ncnc32)C1 (stereo not shown) = 12
• CNC(=O)c1cnc(S(C)(=O)=O)nc1N1CCCC(n2nc(-c3ccc(Oc4ccccc4)cc3)c3c(N)ncnc32)C1 (stereo not shown) = 19

Attention now turns to another entry.
INPUT: Given the entry Cc1cnc(S(C)(=O)=O)nc1N1CCCC(n2nc(-c3ccc(Oc4ccccc4)cc3)c3c(N)ncnc32)C1 (stereo not shown) , report its measured difference in %Control versus compound Ib at 1 µM.
OUTPUT: 12
